experiment: Active ingredient assay and recovery on storage (Table 2); assay type: physicochemical; details: 2 wks, 54° C.
Would you kindly list Assay (% w/w) for each of these compounds?
Lab book: enter the figure in % w/w, no units written.

Which Assay (% w/w) is listed for CCCCCCCC(=O)Oc1c(Br)cc(C#N)cc1Br [Bromoxynil, Bromoxynil Octanoate] ?
31.02

Data request, read-out Assay (% w/w), for CCCCC(CC)COC(=O)COc1ccc(Cl)cc1C (centres unmarked)
35.05

Which Assay (% w/w) is listed for COc1nn(C(=O)[N-]S(=O)(=O)c2ccccc2OC(F)(F)F)c(=O)n1C.[Na+] [Flucarbazone, Flucarbazone Sodium] ?
1.90

Fill blank: measured Assay (% w/w) of the compound CCCCCC(C)OC(=O)COc1ccc(Cl)c2cccnc12 (centres unmarked) is ____.
0.39

For the compound CCCCCCC(C)OC(=O)COc1nc(F)c(Cl)c(N)c1Cl (centres unmarked) , what Assay (% w/w) is on record?
11.63

====

assay: Active ingredient assay on storage, SCB239-12 (Table 3); format: physicochemical; conditions: 1 month storage, 40° C.
observable: Assay (% w/w)
# output: bare number, implied unit % w/w

State the recorded Assay (% w/w) for this entry: COc1nn(C(=O)[N-]S(=O)(=O)c2ccccc2OC(F)(F)F)c(=O)n1C.[Na+] [Flucarbazone, Flucarbazone Sodium]
1.85

Endpoint output: Assay (% w/w) of CCCCC(CC)COC(=O)COc1ccc(Cl)cc1C (centres unmarked) . Value?
33.61

Would you mind telling me what Assay (% w/w) value was observed for CCCCCCCC(=O)Oc1c(Br)cc(C#N)cc1Br [Bromoxynil, Bromoxynil Octanoate] ?
30.65

Quick one: Assay (% w/w) of CCCCCCC(C)OC(=O)COc1nc(F)c(Cl)c(N)c1Cl (centres unmarked) ?
11.24

Given CCCCCC(C)OC(=O)COc1ccc(Cl)c2cccnc12 (centres unmarked) , state its recorded Assay (% w/w).
0.35

====

experiment: Active ingredient assay and recovery on storage (Table 2); format: physicochemical; settings: 2 month storage, −10° C.
Please provide measured Assay (% w/w) for the entries that follow.
Numbers only; they are read as % w/w.

Entry CCCCCC(C)OC(=O)COc1ccc(Cl)c2cccnc12 (centres unmarked) [cloquintocet, Cloquintocet Mexyl] : reported Assay (% w/w) = ?
0.41

Which Assay (% w/w) is reported for this compound? CCCCCCC(C)OC(=O)COc1nc(F)c(Cl)c(N)c1Cl (centres unmarked) [Fluroxypyr, Fluroxypyr Meptyl]
11.55

Recorded Assay (% w/w) of COc1nn(C(=O)[N-]S(=O)(=O)c2ccccc2OC(F)(F)F)c(=O)n1C.[Na+] [Flucarbazone, Flucarbazone Sodium] , please.
1.93

I'd like to know its Assay (% w/w). The compound in question is CCCCC(CC)COC(=O)COc1ccc(Cl)cc1C (centres unmarked) [MCPA]
34.92

Form field: reported Assay (% w/w) of CCCCCCCC(=O)Oc1c(Br)cc(C#N)cc1Br [Bromoxynil, Bromoxynil Octanoate]
31.34

====

experiment: Active ingredient assay on storage, SCB239-12 (Table 3); format: physicochemical; settings: 3 month storage, −10° C.
observable: Recovery of active ingredient (% of initial assay) (% w/w)
Return type: number; implicit unit % w/w.

Any idea what Recovery of active ingredient (% of initial assay) was measured for COc1nn(C(=O)[N-]S(=O)(=O)c2ccccc2OC(F)(F)F)c(=O)n1C.[Na+] [Flucarbazone, Flucarbazone Sodium] ?
98.44

Look up Recovery of active ingredient (% of initial assay) for this compound: CCCCCCC(C)OC(=O)COc1nc(F)c(Cl)c(N)c1Cl (centres unmarked) [Fluroxypyr, Fluroxypyr Meptyl]
98.30

Looking for the measured Recovery of active ingredient (% of initial assay) of CCCCCCCC(=O)Oc1c(Br)cc(C#N)cc1Br [Bromoxynil, Bromoxynil Octanoate] , can you help?
97.68

What value of measured Recovery of active ingredient (% of initial assay) is listed for CCCCCC(C)OC(=O)COc1ccc(Cl)c2cccnc12 (centres unmarked) [cloquintocet, Cloquintocet Mexyl] ?
99.59

For the compound shown here, CCCCC(CC)COC(=O)COc1ccc(Cl)cc1C (centres unmarked) [MCPA] , give the reported Recovery of active ingredient (% of initial assay).
99.20

====

Assign Assay (% w/w) to each entry below.
experiment: Active ingredient assay and recovery on storage (Table 2); assay type: physicochemical; settings: 12 month storage, 25° C.
Give the value in % w/w but do not write % w/w after it.

# lookup: Assay (% w/w) of CCCCCCCC(=O)Oc1c(Br)cc(C#N)cc1Br [Bromoxynil, Bromoxynil Octanoate]
31.19

For the molecule shown here, COc1nn(C(=O)[N-]S(=O)(=O)c2ccccc2OC(F)(F)F)c(=O)n1C.[Na+] [Flucarbazone, Flucarbazone Sodium] , give the reported Assay (% w/w).
1.92

I am curious: what Assay (% w/w) value has been reported for CCCCCCC(C)OC(=O)COc1nc(F)c(Cl)c(N)c1Cl (centres unmarked) [Fluroxypyr, Fluroxypyr Meptyl] ?
11.63

Which Assay (% w/w) is listed for CCCCC(CC)COC(=O)COc1ccc(Cl)cc1C (centres unmarked) [MCPA] ?
34.84

Endpoint output: Assay (% w/w) of CCCCCC(C)OC(=O)COc1ccc(Cl)c2cccnc12 (centres unmarked) [cloquintocet, Cloquintocet Mexyl] . Value?
0.39

====

test: Active ingredient assay and recovery on storage (Table 2); type: physicochemical; conditions: 3 month storage, T/C
observable: Assay (% w/w)
Only the number, expressed in % w/w, is required.

Look at this compound and give its reported Assay (% w/w). CCCCCCC(C)OC(=O)COc1nc(F)c(Cl)c(N)c1Cl (centres unmarked)
11.71

Which Assay (% w/w) is reported for this compound? CCCCCC(C)OC(=O)COc1ccc(Cl)c2cccnc12 (centres unmarked)
0.41

Record request: Assay (% w/w) value, item CCCCCCCC(=O)Oc1c(Br)cc(C#N)cc1Br [Bromoxynil, Bromoxynil Octanoate]
32.54

State the recorded Assay (% w/w) for this entry: COc1nn(C(=O)[N-]S(=O)(=O)c2ccccc2OC(F)(F)F)c(=O)n1C.[Na+] [Flucarbazone, Flucarbazone Sodium]
1.98

Could you share which Assay (% w/w) value was measured for CCCCC(CC)COC(=O)COc1ccc(Cl)cc1C (centres unmarked) ?
35.30

====

experiment: Active ingredient assay on storage, SCB239-12 (Table 3); type: physicochemical; conditions: 3 month storage, −10° C.
Mark each entry True if its Assay (% w/w) sits below 10 % w/w, and False for all others.

Lab log: compare recorded Assay (% w/w) with 10 % w/w; is it strictly lower for CCCCCCC(C)OC(=O)COc1nc(F)c(Cl)c(N)c1Cl (centres unmarked) [Fluroxypyr, Fluroxypyr Meptyl] ?
False

Quick check: Assay (% w/w) of COc1nn(C(=O)[N-]S(=O)(=O)c2ccccc2OC(F)(F)F)c(=O)n1C.[Na+] [Flucarbazone, Flucarbazone Sodium] under 10 % w/w?
True

Answer whether the molecule CCCCCC(C)OC(=O)COc1ccc(Cl)c2cccnc12 (centres unmarked) [cloquintocet, Cloquintocet Mexyl] has Assay (% w/w) strictly less than 10 % w/w
True

Is the reported Assay (% w/w) for CCCCC(CC)COC(=O)COc1ccc(Cl)cc1C (centres unmarked) [MCPA] strictly below 10 % w/w?
False

Does CCCCCCCC(=O)Oc1c(Br)cc(C#N)cc1Br [Bromoxynil, Bromoxynil Octanoate] have Assay (% w/w) strictly under 10 % w/w?
False

====

test: Active ingredient assay on storage, SCB239-12 (Table 3); assay type: physicochemical; conditions: 3 month storage, 25° C.
Provide the reported Recovery of active ingredient (% of initial assay) of each item.
Give the value in % w/w but do not write % w/w after it.

State the recorded Recovery of active ingredient (% of initial assay) for this entry: CCCCCC(C)OC(=O)COc1ccc(Cl)c2cccnc12 (centres unmarked) [cloquintocet, Cloquintocet Mexyl]
100.17

Can you share its Recovery of active ingredient (% of initial assay)? I mean this molecule: CCCCCCCC(=O)Oc1c(Br)cc(C#N)cc1Br [Bromoxynil, Bromoxynil Octanoate]
96.21

Consider the molecule COc1nn(C(=O)[N-]S(=O)(=O)c2ccccc2OC(F)(F)F)c(=O)n1C.[Na+] [Flucarbazone, Flucarbazone Sodium] and give its measured Recovery of active ingredient (% of initial assay).
98.51

Endpoint output: Recovery of active ingredient (% of initial assay) of CCCCCCC(C)OC(=O)COc1nc(F)c(Cl)c(N)c1Cl (centres unmarked) [Fluroxypyr, Fluroxypyr Meptyl] . Value?
98.92

Requested field: Recovery of active ingredient (% of initial assay). Item: CCCCC(CC)COC(=O)COc1ccc(Cl)cc1C (centres unmarked) [MCPA]
99.86

====

Provide the reported Recovery of active ingredient (% of initial assay) of each item.
experiment: Active ingredient assay on storage, SCB239-12 (Table 3); format: physicochemical; conditions: F/T sample
Write the quantity with the unit trailing the number.

Given the compound COc1nn(C(=O)[N-]S(=O)(=O)c2ccccc2OC(F)(F)F)c(=O)n1C.[Na+] [Flucarbazone, Flucarbazone Sodium] , what is its reported Recovery of active ingredient (% of initial assay)?
99.26 % w/w

Entry under review: CCCCCCC(C)OC(=O)COc1nc(F)c(Cl)c(N)c1Cl (centres unmarked) [Fluroxypyr, Fluroxypyr Meptyl] . Reported Recovery of active ingredient (% of initial assay)?
99.68 % w/w

Name the recorded Recovery of active ingredient (% of initial assay) for CCCCCCCC(=O)Oc1c(Br)cc(C#N)cc1Br [Bromoxynil, Bromoxynil Octanoate] .
99.73 % w/w

Which Recovery of active ingredient (% of initial assay) value belongs to CCCCCC(C)OC(=O)COc1ccc(Cl)c2cccnc12 (centres unmarked) [cloquintocet, Cloquintocet Mexyl] ?
101.49 % w/w

Tell me the measured Recovery of active ingredient (% of initial assay) of CCCCC(CC)COC(=O)COc1ccc(Cl)cc1C (centres unmarked) [MCPA] , please.
101.84 % w/w
